CONDITION_CONTEXT: 323.15 K; 101.33 kPa; Liquid; Moving piston method
Outcome label depends on viscosity relative to 40 mPa·s: at/above gives 1, below gives -1.

Could you verify whether the entry CCCCCC[n+]1ccn(C)c1.O=S(=O)([N-]S(=O)(=O)C(F)(F)F)C(F)(F)F shows viscosity of no less than 40 mPa·s? -1

Could you verify whether the entry CCCCCCn1cc[n+](C)c1.F[B-](F)(F)F [1-hexyl-3-methylimidazolium tetrafluoroborate] shows viscosity of no less than 40 mPa·s? 1

Could you verify whether the entry CCCCCCn1cc[n+](C)c1.F[P-](F)(F)(F)(F)F [1-hexyl-3-methylimidazolium hexafluorophosphate] shows viscosity of no less than 40 mPa·s? 1

Could you verify whether the entry CCCCCCCCCCn1cc[n+](C)c1.O=S(=O)([N-]S(=O)(=O)C(F)(F)F)C(F)(F)F shows viscosity of no less than 40 mPa·s? -1

Could you verify whether the entry CCn1cc[n+](C)c1.O=S(=O)([N-]S(=O)(=O)C(F)(F)F)C(F)(F)F shows viscosity of no less than 40 mPa·s? -1

###

CONDITION_CONTEXT: 298.15 K; 101.33 kPa; Liquid; Cone and plate viscometry
Outcome label depends on viscosity relative to 100 mPa·s: at/above gives Yes, below gives No.

Could you verify whether the entry CCCCCCCCCCn1cc[n+](C)c1.O=S(=O)([N-]S(=O)(=O)C(F)(F)F)C(F)(F)F shows viscosity of no less than 100 mPa·s? Yes

More entries:
Could you verify whether the entry CCCCCCn1cc[n+](C)c1.F[P-](F)(F)(F)(F)F [1-hexyl-3-methylimidazolium hexafluorophosphate] shows viscosity of no less than 100 mPa·s? Yes

Could you verify whether the entry CCCCCCn1cc[n+](C)c1.F[B-](F)(F)F [1-hexyl-3-methylimidazolium tetrafluoroborate] shows viscosity of no less than 100 mPa·s? Yes

Could you verify whether the entry CCCCCC[n+]1ccn(C)c1.O=S(=O)([N-]S(=O)(=O)C(F)(F)F)C(F)(F)F shows viscosity of no less than 100 mPa·s? No

Could you verify whether the entry CCn1cc[n+](C)c1.O=S(=O)([N-]S(=O)(=O)C(F)(F)F)C(F)(F)F shows viscosity of no less than 100 mPa·s? No

###

Below: a set of entries, each annotated with reported viscosity.
CONDITION_CONTEXT: 298.15 K; 101.33 kPa; Liquid; Moving piston method
Record the value in mPa·s, omitting the unit from your answer.

Answered cases to consult:
Which measured viscosity value corresponds to CCCCCCn1cc[n+](C)c1.F[P-](F)(F)(F)(F)F [1-hexyl-3-methylimidazolium hexafluorophosphate] ? 481.4

Which measured viscosity value corresponds to CCn1cc[n+](C)c1.O=S(=O)([N-]S(=O)(=O)C(F)(F)F)C(F)(F)F ? 34.29

Which measured viscosity value corresponds to CCCCCC[n+]1ccn(C)c1.O=S(=O)([N-]S(=O)(=O)C(F)(F)F)C(F)(F)F ? 71

More entries:
Which measured viscosity value corresponds to CCCCCCn1cc[n+](C)c1.F[B-](F)(F)F [1-hexyl-3-methylimidazolium tetrafluoroborate] ? 202.4

Which measured viscosity value corresponds to CCCCCCCCCCn1cc[n+](C)c1.O=S(=O)([N-]S(=O)(=O)C(F)(F)F)C(F)(F)F ? 108.2
